Where these numbers come from: the NIST ThermoML archive (doi:10.1021/je100042c)

# test settings: 313.15 K; 101.33 kPa; Liquid; Concentric cylinders viscometry
Tag: Condition met if measured viscosity is not below 4 mPa·s, Condition not met if it is.

molecule	class assignment
CCCCC/C=C\C/C=C\CCCCCCCC(=O)OC [methyl (Z,Z)-9,12-octadecadienate]	Condition not met

Okay, now this molecule:
Item CCCCCCCCCCCCCCCCCC(=O)OCC [ethyl octadecanoate] with viscosity of 4 mPa·s or above?
Condition met

* * *

viscosity listing for selected compounds.
# test settings: 313.15 K; 101.33 kPa; Liquid; Concentric cylinders viscometry
Value expressed in mPa·s; do not type the unit.

For orientation, consider the following solved cases.
compound	value type	numeric readout
CCCCCCCCCC(=O)OC [methyl decanoate]	viscosity	1.477
CCCCCCCCCCCCCC(=O)OCC [ethyl tetradecanoate]	viscosity	2.993

Would you kindly look at the next entry?
# viscosity (compound: CCCCCCCCCCCC(=O)OCC [ethyl dodecanoate] ) is 2.22

* * *

# test settings: 333.15 K; 101.33 kPa; Liquid; Vibrating tube method
mass density listing for selected molecules.
Value expressed in kg/m3; do not type the unit.

For orientation, consider the following solved cases.
molecule	value type	numeric readout
CCCCCCCC(=O)OC [methyl octanoate]	mass density	841.9
CCCCCCCCCCCCCCCC(=O)OCC [ethyl hexadecanoate]	mass density	830.5
CCCCCCCC/C=C\CCCCCCCC(=O)OCC [ethyl (Z)-9-octadeceneoate]	mass density	840.4

# mass density (molecule: CCCCCCCCCCCCCC(=O)OC [methyl tetradecanoate] ) is 837

# mass density (molecule: CCCCCCCCCC(=O)OC [methyl decanoate] ) is 839.5

# mass density (molecule: CCCCCCCCCCCC(=O)OC [methyl dodecanoate] ) is 838.1

* * *

# test settings: 283.15 K; 101.33 kPa; Liquid; Concentric cylinders viscometry
viscosity listing for selected molecules.
Value expressed in mPa·s; do not type the unit.

molecule	measurement unit	viscosity
CCCCCCCCCCCCCC(=O)OCC [ethyl tetradecanoate]	mPa·s	6.26
CCCCCCCC/C=C\CCCCCCCC(=O)OC [methyl cis-9-octadecenoate]	mPa·s	8.699

# viscosity (molecule: CCCCCCCCCCCC(=O)OCC [ethyl dodecanoate] ) is 4.335

# viscosity (molecule: CCCCC/C=C\C/C=C\CCCCCCCC(=O)OC [methyl (Z,Z)-9,12-octadecadienate] ) is 6.466

# viscosity (molecule: CCCCCCCCCCCC(=O)OC [methyl dodecanoate] ) is 4.068

# viscosity (molecule: CCCCCCCC/C=C\CCCCCCCC(=O)OCC [ethyl (Z)-9-octadeceneoate] ) is 8.839

# viscosity (molecule: CCCCCCCC(=O)OC [methyl octanoate] ) is 1.71

# viscosity (molecule: CCCCCCCCCC(=O)OCC [ethyl decanoate] ) is 2.896

# viscosity (molecule: CCCCCCCCCC(=O)OC [methyl decanoate] ) is 2.654

* * *

# test settings: 338.15 K; 101.33 kPa; Liquid; Vibrating tube method
mass density listing for selected compounds.
Value expressed in kg/m3; do not type the unit.

For orientation, consider the following solved cases.
compound	numeric readout
CCCCCCCCCCCCCCCCCC(=O)OCC [ethyl octadecanoate]	826.7
CCCCCCCCCCCC(=O)OCC [ethyl dodecanoate]	827.2
CCCCCCCCCC(=O)OCC [ethyl decanoate]	827.5

# mass density (compound: CCCCCCCCCCCCCCCCCC(=O)OC [methyl octadecanoate] ) is 831.7

# mass density (compound: CCCCCCCC/C=C\CCCCCCCC(=O)OCC [ethyl (Z)-9-octadeceneoate] ) is 836.8
